Target: VEGFR-2 (KDR) (Homo sapiens)
Construct: purchased BPS Bioscience 40301
Assay: In vitro VEGFR-2 tyrosine kinase activity (Kinase-Glo Plus luminescence, BPS Bioscience)
Assay type: biochemical
Settings: single dose concentration of 10 μM
Assay Metric: inhibition at 10 µM (%)
Write the number in % without appending the unit.

CCOC(=O)c1c(C)oc2ncnc(Nc3ccc(NC(=O)Nc4cccc(Cl)c4)cc3)c12 [Compound 15d]
61
O=C(Nc1ccccc1)Nc1ccc(Nc2ncnc3sc4c(c23)CCCC4)cc1 [Compound 20a]
39
CCOC(=O)c1c(C)oc2ncnc(Oc3ccc(NC(=O)Nc4ccc(Cl)cc4)cc3)c12 [Compound 16d]
40
COc1cccc(NC(=O)Nc2ccc(Nc3ncnc4sc5c(c34)CCCC5)cc2)c1 [Compound 20c]
67
Cc1cccc(NC(=O)Nc2ccc(Nc3ncnc4sc5c(c34)CCCC5)cc2)c1 [Compound 20b]
47

Ask: Quote inhibition at 10 µM reported for CCOC(=O)c1c(C)oc2ncnc(Nc3ccc(NC(=O)Nc4cccc(OC)c4)cc3)c12 [Compound 15c] please.
Result: 62

Ask: Quote inhibition at 10 µM reported for CCOC(=O)c1c(C)oc2ncnc(Nc3ccc(NC(=O)c4cccc(Cl)c4)cc3)c12 [Compound 13a] please.
Result: 8

---

Test system: UACC-62
Test: NCI 60 cell line panel (SRB), UACC-62
Format: cell-based
Details: Homo sapiens; UACC-62, Melanoma; single dose of 10 μM; read-out: Cell Growth Percent
Reported activity at 10 µM values for the following molecules.
Write the number in % without appending the unit.

Here is how some molecules turned out for activity at 10 µM.
O=C(Nc1ccc(Cl)cc1)Nc1ccc(Oc2ncnc3sc4c(c23)CCCC4)cc1 [Compound 21d]
73.2
CCOC(=O)c1c(C)oc2ncnc(Nc3ccc(NC(=O)Nc4ccc(CC)cc4)cc3)c12 [Compound 15i]
108
Cc1cccc(NC(=O)Nc2ccc(Oc3ncnc4sc5c(c34)CCCC5)cc2)c1 [Compound 21b]
75.7

Proceeding to the next molecule to report its activity at 10 µM.
Ask: Quote activity at 10 µM reported for COc1cccc(NC(=O)Nc2ccc(Nc3ncnc4sc5c(c34)CCCC5)cc2)c1 [Compound 20c] please.
Result: 106

---

System: SK-MEL-28
Assay: NCI 60 cell line panel (SRB), SK-MEL-28
Type: cell-based
Conditions: Homo sapiens; SK-MEL-28, Melanoma; single dose of 10 μM; read-out: Cell Growth Percent
The label depends only on activity at 10 µM: T if it is at least 90%, F if it is smaller.

CCOC(=O)c1c(C)oc2ncnc(Nc3ccc(NC(=O)Nc4cccc(Cl)c4)cc3)c12 [Compound 15d]
F
O=C(Nc1ccc(Nc2ncnc3sc4c(c23)CCCC4)cc1)Nc1cccc(Cl)c1 [Compound 20d]
T
CCOC(=O)c1c(C)oc2ncnc(Nc3ccc(C(=O)Nc4ccc(OC)cc4)cc3)c12 [Compound 14b]
T

Ask: // inclusive: activity at 10 µM at least 90%? input: COc1cccc(NC(=O)Nc2ccc(Nc3ncnc4sc5c(c34)CCCC5)cc2)c1 [Compound 20c]
Result: T

Ask: // inclusive: activity at 10 µM at least 90%? input: O=C(Nc1ccccc1)Nc1ccc(Oc2ncnc3sc4c(c23)CCCC4)cc1 [Compound 21a]
Result: F

Ask: // inclusive: activity at 10 µM at least 90%? input: O=C(Nc1ccccc1)Nc1ccc(Nc2ncnc3sc4c(c23)CCCC4)cc1 [Compound 20a]
Result: T

---

System: A498
Assay: NCI 60 cell line panel (SRB), A498
Format: cell-based
Settings: Homo sapiens; A498, Renal Cancer; single dose of 10 μM; read-out: Cell Growth Percent
Reported activity at 10 µM values for the following compounds.
Write the number in % without appending the unit.

COc1cccc(NC(=O)Nc2ccc(Nc3ncnc4sc5c(c34)CCCC5)cc2)c1 [Compound 20c]
91.3

Ask: Quote activity at 10 µM reported for CCOC(=O)c1c(C)oc2ncnc(Nc3ccc(C(=O)Nc4cccc(Cl)c4)cc3)c12 [Compound 14a] please.
Result: 92.4

Ask: Quote activity at 10 µM reported for O=C(Nc1ccccc1)Nc1ccc(Nc2ncnc3sc4c(c23)CCCC4)cc1 [Compound 20a] please.
Result: 83.3

Ask: Quote activity at 10 µM reported for CCOC(=O)c1c(C)oc2ncnc(Nc3ccc(NC(=O)Nc4ccc(CC)cc4)cc3)c12 [Compound 15i] please.
Result: 109

Ask: Quote activity at 10 µM reported for O=C(Nc1ccccc1)Nc1ccc(Oc2ncnc3sc4c(c23)CCCC4)cc1 [Compound 21a] please.
Result: 56.7

Ask: Quote activity at 10 µM reported for CCOC(=O)c1c(C)oc2ncnc(Nc3ccc(C(=O)NCCc4ccccc4)cc3)c12 [Compound 14e] please.
Result: 77.5

Ask: Quote activity at 10 µM reported for O=C(Nc1ccc(Nc2ncnc3sc4c(c23)CCCC4)cc1)Nc1cccc(Cl)c1 [Compound 20d] please.
Result: 86.7

Ask: Quote activity at 10 µM reported for Cc1cccc(NC(=O)Nc2ccc(Oc3ncnc4sc5c(c34)CCCC5)cc2)c1 [Compound 21b] please.
Result: 68.3

---

Test system: HCC-2998
Experiment: NCI 60 cell line panel (SRB), HCC-2998
Type: cell-based
Conditions: Homo sapiens; HCC-2998, Colon Cancer; single dose of 10 μM; read-out: Cell Growth Percent
Assay Metric: activity at 10 µM (%)
Write the number in % without appending the unit.

Here is how some compounds turned out for activity at 10 µM.
CCOC(=O)c1c(C)oc2ncnc(Nc3ccc(C(=O)Nc4cccc(Cl)c4)cc3)c12 [Compound 14a]
105
CCOC(=O)c1c(C)oc2ncnc(Nc3ccc(NC(=O)Nc4cccc(Cl)c4)cc3)c12 [Compound 15d]
105
O=C(Nc1ccc(Nc2ncnc3sc4c(c23)CCCC4)cc1)Nc1cccc(Cl)c1 [Compound 20d]
103
CCOC(=O)c1c(C)oc2ncnc(Nc3ccc(C(=O)NCCc4ccccc4)cc3)c12 [Compound 14e]
91.4
CCOC(=O)c1c(C)oc2ncnc(Nc3ccc(C(=O)Nc4ccc(OC)cc4)cc3)c12 [Compound 14b]
114

Ask: Quote activity at 10 µM reported for Cc1cccc(NC(=O)Nc2ccc(Oc3ncnc4sc5c(c34)CCCC5)cc2)c1 [Compound 21b] please.
Result: 104

Ask: Quote activity at 10 µM reported for CCOC(=O)c1c(C)oc2ncnc(Nc3ccc(NC(=O)Nc4ccc(CC)cc4)cc3)c12 [Compound 15i] please.
Result: 114

Ask: Quote activity at 10 µM reported for O=C(Nc1ccc(Cl)cc1)Nc1ccc(Oc2ncnc3sc4c(c23)CCCC4)cc1 [Compound 21d] please.
Result: 107

---

System: NCI-H522
Experiment: NCI 60 cell line panel (SRB), NCI-H522
Assay type: cell-based
Details: Homo sapiens; NCI-H522, Non-Small Cell Lung Cancer; single dose of 10 μM; read-out: Cell Growth Percent
Binary call on activity at 10 µM with cut-off 60%: strictly below means class 1, and equality or higher means class 0.

Previously resolved entries follow.
COc1cccc(NC(=O)Nc2ccc(Oc3ncnc4sc5c(c34)CCCC5)cc2)c1 [Compound 21c]
class 1
CCOC(=O)c1c(C)oc2ncnc(Nc3ccc(C(=O)Nc4cccc(Cl)c4)cc3)c12 [Compound 14a]
class 0

Ask: Does the reported activity at 10 µM of the following compound sit strictly below 60%? CCOC(=O)c1c(C)oc2ncnc(Nc3ccc(NC(=O)Nc4cccc(Cl)c4)cc3)c12 [Compound 15d]
Result: class 1

Ask: Does the reported activity at 10 µM of the following compound sit strictly below 60%? O=C(Nc1ccc(Cl)cc1)Nc1ccc(Oc2ncnc3sc4c(c23)CCCC4)cc1 [Compound 21d]
Result: class 1

Ask: Does the reported activity at 10 µM of the following compound sit strictly below 60%? O=C(Nc1ccccc1)Nc1ccc(Oc2ncnc3sc4c(c23)CCCC4)cc1 [Compound 21a]
Result: class 1

Ask: Does the reported activity at 10 µM of the following compound sit strictly below 60%? Cc1cccc(NC(=O)Nc2ccc(Oc3ncnc4sc5c(c34)CCCC5)cc2)c1 [Compound 21b]
Result: class 1

Ask: Does the reported activity at 10 µM of the following compound sit strictly below 60%? CCOC(=O)c1c(C)oc2ncnc(Nc3ccc(C(=O)Nc4ccc(OC)cc4)cc3)c12 [Compound 14b]
Result: class 0

---

Biological target: VEGFR-2 (KDR) (Homo sapiens, UniProt P35968)
Construct: purchased BPS Bioscience 40301
Sequence (P35968 20-1356): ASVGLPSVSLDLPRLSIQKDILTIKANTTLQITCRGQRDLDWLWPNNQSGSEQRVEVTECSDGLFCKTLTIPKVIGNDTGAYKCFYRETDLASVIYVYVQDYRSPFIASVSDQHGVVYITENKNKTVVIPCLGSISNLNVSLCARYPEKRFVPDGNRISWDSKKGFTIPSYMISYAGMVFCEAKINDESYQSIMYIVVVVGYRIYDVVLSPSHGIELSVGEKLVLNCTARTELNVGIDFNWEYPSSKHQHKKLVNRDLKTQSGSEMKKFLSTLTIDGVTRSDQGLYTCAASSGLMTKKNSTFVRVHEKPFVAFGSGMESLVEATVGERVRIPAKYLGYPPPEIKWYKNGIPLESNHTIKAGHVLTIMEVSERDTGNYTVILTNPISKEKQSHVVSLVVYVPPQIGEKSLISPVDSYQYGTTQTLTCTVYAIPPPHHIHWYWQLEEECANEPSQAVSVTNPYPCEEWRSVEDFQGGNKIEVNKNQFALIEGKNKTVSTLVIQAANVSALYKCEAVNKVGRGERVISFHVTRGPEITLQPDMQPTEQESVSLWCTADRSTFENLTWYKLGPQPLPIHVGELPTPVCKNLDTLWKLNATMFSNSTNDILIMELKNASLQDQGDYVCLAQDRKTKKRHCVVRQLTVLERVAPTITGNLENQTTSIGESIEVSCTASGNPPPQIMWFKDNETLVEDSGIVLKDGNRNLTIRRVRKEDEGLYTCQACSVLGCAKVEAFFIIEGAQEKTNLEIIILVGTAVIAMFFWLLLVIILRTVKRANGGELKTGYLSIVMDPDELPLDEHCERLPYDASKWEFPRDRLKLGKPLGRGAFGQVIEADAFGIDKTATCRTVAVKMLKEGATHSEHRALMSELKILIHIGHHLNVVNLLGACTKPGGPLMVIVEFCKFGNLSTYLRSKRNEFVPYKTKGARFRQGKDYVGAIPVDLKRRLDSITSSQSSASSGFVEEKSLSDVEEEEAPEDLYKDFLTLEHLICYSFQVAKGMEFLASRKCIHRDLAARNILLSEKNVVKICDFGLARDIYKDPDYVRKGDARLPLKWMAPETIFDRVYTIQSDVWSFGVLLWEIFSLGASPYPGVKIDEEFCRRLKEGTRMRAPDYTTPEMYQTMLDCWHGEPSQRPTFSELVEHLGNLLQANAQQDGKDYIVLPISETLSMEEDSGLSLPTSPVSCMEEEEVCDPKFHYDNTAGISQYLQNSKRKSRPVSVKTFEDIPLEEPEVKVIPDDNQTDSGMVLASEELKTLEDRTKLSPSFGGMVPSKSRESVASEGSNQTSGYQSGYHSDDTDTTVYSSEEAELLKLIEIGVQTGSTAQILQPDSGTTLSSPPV
Assay: In vitro VEGFR-2 tyrosine kinase activity (Kinase-Glo Plus luminescence, BPS Bioscience)
Format: biochemical
Conditions: single dose concentration of 10 μM
Assay Metric: inhibition at 10 µM (%)
Write the number in % without appending the unit.

Ask: Quote inhibition at 10 µM reported for CCOC(=O)c1c(C)oc2ncnc(Nc3ccc(NC(=O)Nc4ccc(CC)cc4)cc3)c12 [Compound 15i] please.
Result: 23

Ask: Quote inhibition at 10 µM reported for CCOC(=O)c1c(C)oc2ncnc(Nc3ccc(C(=O)Nc4ccc(Cl)c(C(F)(F)F)c4)cc3)c12 [Compound 14d] please.
Result: 14
